System: IRAK4 (Homo sapiens (Human)) | Read-out: pIC50 | Origin: multiple publications
Answers are plain numbers, as −log10 of the molar value.

Take a look at these entries with their results.
>>> reading("CC(C)Nc1c(C(=O)NC2CCN(S(=O)(=O)CCC(F)(F)F)CC2)cnc2ccc(-c3cn[nH]c3)cc12")
7.48
>>> reading("C[C@]1(O)CC[C@H](n2cc3cc(NC(=O)c4cccc(C(F)(F)F)n4)c(-n4cccn4)cc3n2)CC1")
8.70
>>> reading("CC(O)CCNc1cc(-c2cnn3cc(Cl)cnc23)ncc1C(=O)NC[C@@H](F)C(C)(C)O (some centres unmarked)")
8.22

Attention now turns to another entry.
Hi! What's the reported pIC50 for Cc1cc(-c2nc(C(=O)Nc3cn4cc(CC(C)(C)O)nc4cc3-c3ccccc3)co2)ccn1 on IRAK4 (Homo sapiens (Human))?
9.52
